Target: human GHS-R1a (Homo sapiens, UniProt Q92847)
Construct: expressed in transfected cells
Sequence (Q92847 whole entry): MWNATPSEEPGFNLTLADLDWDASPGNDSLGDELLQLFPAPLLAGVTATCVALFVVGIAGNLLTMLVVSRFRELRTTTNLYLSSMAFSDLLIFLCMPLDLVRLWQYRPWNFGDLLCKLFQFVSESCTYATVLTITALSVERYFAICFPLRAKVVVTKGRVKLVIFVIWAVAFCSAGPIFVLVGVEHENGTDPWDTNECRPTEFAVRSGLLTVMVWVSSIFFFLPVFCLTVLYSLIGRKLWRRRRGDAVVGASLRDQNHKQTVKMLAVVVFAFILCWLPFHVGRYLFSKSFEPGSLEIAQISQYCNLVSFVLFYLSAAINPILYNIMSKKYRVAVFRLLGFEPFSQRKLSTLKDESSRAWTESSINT
Assay: Agonistic activity by use of a cell line stably expressing human GHS-R1a (intracellular calcium increase)
Type: cell-based
Conditions: hGHS-R1a/CHO cells, percent increase in intracellular calcium vs 100 nM ghrelin; read-out: GHS-R agonistic activity (EC50: nM)
Where a name gives a salt, the structure may show the parent alone.
reported-endpoint: EC50 (nM)

Recorded EC50, per entry:
compound	EC50 / nM
CC(C)C[C@@H](NC(=O)C(C)(C)N)C(=O)NC1Cc2ccccc2N(Cc2ccccc2)C1=O (stereo partly shown) [Comp. Ex. 1, hydrochloride, reference compound]	149
CC(=O)Nc1cccc2c1N(Cc1ccccn1)C(=O)C(NC(=O)[C@@H](CC(C)C)NC(=O)C(C)(C)N)C2 (stereo partly shown) [Example 40]	80

A = CC(C)C[C@@H](NC(=O)C(C)(C)N)C(=O)NC1Cc2cccc(N3CCCC3=O)c2N(Cc2cccs2)C1=O (stereo partly shown) [Example 34m, hydrochloride]
B = Cn1cc(C[C@@H](NC(=O)C(C)(C)N)C(=O)NC2Cc3cccc(N4CCCC4=O)c3N(Cc3ccsc3)C2=O)c2ccccc21 (stereo partly shown) [Example 34b, hydrochloride]
C = CC(C)C[C@@H](NC(=O)C(C)(C)N)C(=O)NC1Cc2cccc(N3C(=O)CCC3=O)c2N(Cc2ccccc2)C1=O (stereo partly shown) [Example 37, hydrochloride]
D = CC(C)C[C@@H](NC(=O)[C@H](C)N)C(=O)NC1Cc2cccc(N3CCCC3=O)c2N(Cc2ccsc2)C1=O (stereo partly shown) [Example 25h]
E = CC[C@@](C)(N)C(=O)N[C@H](Cc1cn(C)c2ccccc12)C(=O)NC1Cc2cccc(N3CCCC3=O)c2N(Cc2ccsc2)C1=O (stereo partly shown) [Example 34i, hydrochloride]
Order the items by recorded EC50; the first position goes to the largest value. Returns: the labels arranged in the requested order.
D, A, C, E, B
